This listing pairs binders with measured kon.
# Assay system: T1, hOX40-his (human, UniProt P43489 29-216)
# T1 construct: range 1-216; Made in HEK293; The stated range starts at residue 1 (holds the signal peptide of the entry); no cleavage site stated; not shown: his tag
# T1 sequence (looked up): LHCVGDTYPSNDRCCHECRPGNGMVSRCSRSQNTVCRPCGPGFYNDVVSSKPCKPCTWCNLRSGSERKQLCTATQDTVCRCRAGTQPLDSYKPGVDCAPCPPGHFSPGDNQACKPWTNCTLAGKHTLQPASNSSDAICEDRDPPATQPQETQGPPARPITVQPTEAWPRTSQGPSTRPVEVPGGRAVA
# Test description: BIACORE, antibody on the probe, 20 nM OX40-his
# Source text: Table 10 illustrates the CDRs of eight full antibodies containing these amino acid mutations, and the rest of the sequences are the same as those of antibody-F23-32K. […]
Dear colleague, please return just the value in M⁻¹ s⁻¹, with no unit written.

T + TD (antibody, human IgG1, kappa, V domains shown) VH: QVQLEESGGGVVQPGESLRLSCAASGFTFSSYGMHWVRQAPGKGLEWVAVISYDGSNQYYADSVKGRFTISRDNSKNTLYLQMNSLRAEDTAVYYCAKDNQDTSPDVGIDYWGQGTLVTVSS VL: DIQMTQSPSSLSASVGDTVTITCRASQNISPFLNWYQQKPGKAPKLLIYAASSLQSGVPSRFSGSGSGTDFTLTISSLQPEDFATYYCQQYTDYPLTFGGGTKVEIKR : 278000
T + VG (antibody, human IgG1, kappa, V domains shown) VH: QVQLEESGGGVVQPGESLRLSCAASGFTFSSYGMHWVRQAPGKGLEWVAVISYDGSNQYYADSVKGRFTISRDNSKNTLYLQMNSLRAEDTAVYYCAKDNQDTSPDVGIDYWGQGTLVTVSS VL: DIQMTQSPSSLSASVGDTVTITCRASQNISPFLNWYQQKPGKAPKLLIYAAVGLQSGVPSRFSGSGSGTDFTLTISSLQPEDFATYYCQQYNSYPLTFGGGTKVEIKR : 292000
WEST + TD (antibody, human IgG1, kappa, V domains shown) VH: QVQLEESGGGVVQPGESLRLSCAASGFTFSSYGMHWVRQAPGKGLEWVAVIWEDGSNQYYADSVKGRFTISRDNSKNTLYLQMNSLRAEDTAVYYCAKDNQDTSPDVGIDYWGQGTLVTVSS VL: DIQMTQSPSSLSASVGDTVTITCRASQNISPFLNWYQQKPGKAPKLLIYAASSLQSGVPSRFSGSGSGTDFTLTISSLQPEDFATYYCQQYTDYPLTFGGGTKVEIKR : 491000

Shift focus to the following entry.
Asked: Would you mind telling me what kon value was observed for 11D4 (antibody, V domains shown) VH: EVQLVESGGGLVQPGGSLRLSCAASGFTFSSYSMNWVRQAPGKGLEWVSYISSSSSTIDYADSVKGRFTISRDNAKNSLYLQMNSLRDEDTAVYYCARESGWYLFDYWGQGTLVTVSS VL: DIQMTQSPSSLSASVGDRVTITCRASQGISSWLAWYQQKPEKAPKSLIYAASSLQSGVPSRFSGSGSGTDFTLTISSLQPEDFATYYCQQYNSYPPTFGGGTKVEIKR ?
Given back: 353000
